The following molecules are listed with their measured Inhibition values.
system: Staphylococcus aureus; test: Antibacterial activity against Staphylococcus aureus MRSA ATCC 43300 (CO-ADD:GP_020); MIC in CAMBH media using NBS plates, by Resazurin F(560/590); assay type: functional; conditions: Concentration 20 uM, ASSAY_TEST Inhibition of Bacterial Growth, detection method Resazurin, Fluorescence (ex560/em590), MEDIA CAMHB, plate type 384well, CORNING #3640, time 18 hr
Could you give me the number in %? Just the number is fine.

These solved cases illustrate the format of a correct answer.
Cc1ccc(C#CC(C)(O)C(C)(C)C)cn1 (configuration not stated)    4.47
CN(C(=O)c1ccncc1)c1ccccc1    38.14
Nc1ccc(Oc2ccc(N)c([N+](=O)[O-])c2)cc1[N+](=O)[O-]    19.29
FC(F)(F)c1cccc(OCC2CN=C(S)O2)c1 (configuration not stated)    8.92
CCS(=O)(=O)C1C(=O)N(C)C(S(=O)(=O)CC)C(=O)N1C (configuration not stated)    23.63
Cc1cccc(N2CCN(CC(O)COc3ccc(Cl)cc3)CC2)c1 (configuration not stated)    13.02
Cc1nc2ccc(N)nc2nc1C    15.94
Cc1cc2nc3ccc(N(C)C)cc3[s+]c2cc1N.[Cl-] [TOLONIUM CHLORIDE]    -5.05

Inhibition for Staphylococcus aureus with input O=C(O)c1cc(N2C(=O)C=CC2=O)cc(N2C(=O)C=CC2=O)c1 equals -1.11

* * *

system: Escherichia coli; test: Antibacterial activity against Escherichia coli ATCC 25922 (CO-ADD:GN_001); MIC in CAMBH media using NBS plates, by Resazurin F(560/590); type: functional; conditions: Concentration 20 uM, ASSAY_TEST Inhibition of Bacterial Growth, detection method Resazurin, Fluorescence (ex560/em590), MEDIA CAMHB, plate type 384well, CORNING #3640, time 18 hr
Reported Inhibition values follow for various molecules
Numbers only; they are read as %.

# example entries with known answers
OC1COC(OCc2ccccc2)C(O)C1O (stereo unspecified)    8.16
c1ccc(CSc2nnc3c4ccccc4c4ccccc4c3n2)cc1    0.12
CCCN=C(S)Nc1ccccc1    -3.75
O=C1C2CC3N1CCC31c3ccccc3-n3c1c2ccc3=O (stereo unspecified)    6.22
O=c1[nH]cc(Cl)cc1Cl    16.35

Kindly consider the entry below.
Inhibition in this record for CC1(C)OC2CC(=O)OCC23C1CC(=O)C1(C)C3CCC2(C)C(c3ccoc3)OC(=O)C3OC321 (stereo unspecified) : 8.41

* * *

system: Cryptococcus neoformans; details: Concentration 20 uM; ASSAY_TEST Inhibition of Fungal Growth; detection method Resazurin; Absorption (OD600-OD570); plate type 384well; NBS; CORNING #3640
Description: Antifungal activity against Cryptococcus neoformans H99 ATCC 208821 (CO-ADD:FG_002); MIC in YNB media using NBS plates, by Resazurin OD(600-570)
Measured potencies and affinities stand elsewhere.
propertyName: Inhibition (%)
Respond numerically; units are % and should not be typed.

Known results for compounds:
CC(=O)Nc1nc(C)c(CCCOc2ccc([N+](=O)[O-])cc2)c(O)n1    -1.34
Br.C=CC1CN2CCC1CC2C(O)c1ccnc2ccc(OC)cc12 (stereo not given)    7.91
O=C1NC(=O)C2(CCc3ccccc32)N1 (stereo not given)    0.2

Lookup result for O=C(Nc1cccc(Cl)c1)Nc1nccs1 ; measured Inhibition: -22.98
